# Tested on: HAB1
# Assay Info: Yeast two hybrid of pBD-PYR1 site saturation mutants with pACT-HAB1 on 10 μM ABA, β-galactosidase staining
# Format: cell-based, Arabidopsis
# Design: key: x: Mutations in PYR1 that disrupt ABA-induced binding to PYR1 to HAB1
# Particulars: S. cerevisiae Y190, 10 μM ABA; dead = lack of visible staining in comparison to wild type control
Measurement Name: Mutations in PYR1 that disrupt ABA-induced binding to PYR1 to HAB1

Take a look at these entries with their results.
Molecule	Assay Result
S85I: PYR1 mutant (protein, UniProt O49686 1-191, looked up, variant S85I) Abscisic acid receptor PYR1: MPSELTPEERSELKNSIAEFHTYQLDPGSCSSLHAQRIHAPPELVWSIVRRFDKPQTYKHFIKSCSVEQNFEMRVGCTRDVIVIIGLPANTSTERLDILDDERRVTGFSIIGGEHRLTNYKSVTTVHRFEKENRIWTVVLESYVVDMPEGNSEDDTRMFADTVVKLNLQKLATVAEAMARNSGDGSGSQVT	x
F159R: PYR1 mutant (protein, UniProt O49686 1-191, looked up, variant F159R) Abscisic acid receptor PYR1: MPSELTPEERSELKNSIAEFHTYQLDPGSCSSLHAQRIHAPPELVWSIVRRFDKPQTYKHFIKSCSVEQNFEMRVGCTRDVIVISGLPANTSTERLDILDDERRVTGFSIIGGEHRLTNYKSVTTVHRFEKENRIWTVVLESYVVDMPEGNSEDDTRMRADTVVKLNLQKLATVAEAMARNSGDGSGSQVT	x
G86N: PYR1 mutant (protein, UniProt O49686 1-191, looked up, variant G86N) Abscisic acid receptor PYR1: MPSELTPEERSELKNSIAEFHTYQLDPGSCSSLHAQRIHAPPELVWSIVRRFDKPQTYKHFIKSCSVEQNFEMRVGCTRDVIVISNLPANTSTERLDILDDERRVTGFSIIGGEHRLTNYKSVTTVHRFEKENRIWTVVLESYVVDMPEGNSEDDTRMFADTVVKLNLQKLATVAEAMARNSGDGSGSQVT	x
T162E: PYR1 mutant (protein, UniProt O49686 1-191, looked up, variant T162E) Abscisic acid receptor PYR1: MPSELTPEERSELKNSIAEFHTYQLDPGSCSSLHAQRIHAPPELVWSIVRRFDKPQTYKHFIKSCSVEQNFEMRVGCTRDVIVISGLPANTSTERLDILDDERRVTGFSIIGGEHRLTNYKSVTTVHRFEKENRIWTVVLESYVVDMPEGNSEDDTRMFADEVVKLNLQKLATVAEAMARNSGDGSGSQVT	x
N151P: PYR1 mutant (protein, UniProt O49686 1-191, looked up, variant N151P) Abscisic acid receptor PYR1: MPSELTPEERSELKNSIAEFHTYQLDPGSCSSLHAQRIHAPPELVWSIVRRFDKPQTYKHFIKSCSVEQNFEMRVGCTRDVIVISGLPANTSTERLDILDDERRVTGFSIIGGEHRLTNYKSVTTVHRFEKENRIWTVVLESYVVDMPEGPSEDDTRMFADTVVKLNLQKLATVAEAMARNSGDGSGSQVT	x

Turning now to a further molecule:
If you can, please state the reported Mutations in PYR1 that disrupt ABA-induced binding to PYR1 to HAB1 value of A89L: PYR1 mutant (protein, UniProt O49686 1-191, looked up, variant A89L) Abscisic acid receptor PYR1: MPSELTPEERSELKNSIAEFHTYQLDPGSCSSLHAQRIHAPPELVWSIVRRFDKPQTYKHFIKSCSVEQNFEMRVGCTRDVIVISGLPLNTSTERLDILDDERRVTGFSIIGGEHRLTNYKSVTTVHRFEKENRIWTVVLESYVVDMPEGNSEDDTRMFADTVVKLNLQKLATVAEAMARNSGDGSGSQVT .
x

Value source: patent US10919943B2
